# Test system: A549
# Assay method text: Cytotoxicity against human A549 cells after 48 hrs by SRB assay
# Assay type: functional, cell-based
# Recorded conditions: Homo sapiens, A549, 48 h
Measured quantity: LC50 (nM)
# value in nM; strip the unit string

Ask: Looking for the measured LC50 of C/C=C1\NC(=O)[C@H](Cc2ccc3ccccc3c2)NC(=O)[C@@H](C(C)C)NC(=O)[C@@H]([C@H](C)CC)NC(=O)[C@H](NC(=O)[C@H](NC(=O)[C@H](CCCN)NC(=O)[C@H]2CCCN2C(=O)[C@H](NC(=O)[C@@H](NC(=O)[C@@H](NC(=O)[C@H](NC(=O)CCCC(C)C)C(C)C)[C@@H](C)O)C(C)C)C(C)C)[C@H](C)CC)[C@H](C)OC(=O)[C@H](C(C)C)NC1=O , can you help?
Reply: 343

Ask: Quick one: LC50 for C/C=C1\NC(=O)[C@H](c2ccccc2)NC(=O)[C@@H](C(C)C)NC(=O)[C@@H]([C@H](C)CC)NC(=O)[C@H](NC(=O)[C@H](NC(=O)[C@H](CCCN)NC(=O)[C@H]2CCCN2C(=O)[C@H](NC(=O)[C@@H](NC(=O)[C@@H](NC(=O)[C@H](NC(=O)CCCC(C)C)C(C)C)[C@@H](C)O)C(C)C)C(C)C)[C@H](C)CC)[C@H](C)OC(=O)[C@H](C(C)C)NC1=O ?
Reply: 1090

Ask: Dear colleague, I am looking for the recorded LC50 of the following compound: C/C=C1\NC(=O)[C@H](Cc2ccccc2)NC(=O)[C@@H](C(C)C)NC(=O)[C@@H]([C@H](C)CC)NC(=O)[C@H](NC(=O)[C@H](NC(=O)[C@H](CCCNC(=O)C(F)(F)F)NC(=O)[C@H]2CCCN2C(=O)[C@H](NC(=O)[C@@H](NC(=O)[C@@H](NC(=O)[C@H](NC(=O)CC[C@@H](C)CC)C(C)C)[C@@H](C)O)C(C)C)C(C)C)[C@H](C)CC)[C@H](C)OC(=O)[C@H](C(C)C)NC1=O
Reply: 1200

Ask: If you can, please state the reported LC50 value of C/C=C1\NC(=O)[C@H](Cc2ccccc2)NC(=O)[C@@H](C(C)C)NC(=O)[C@@H]([C@H](C)CC)NC(=O)[C@H](NC(=O)[C@H](NC(=O)[C@H](CCCN)NC(=O)[C@H]2CCCN2C(=O)[C@H](NC(=O)[C@@H](NC(=O)[C@@H](NC(=O)[C@H](NC(=O)CCCC(C)C)C(C)C)C(C)C)C(C)C)C(C)C)[C@H](C)CC)[C@H](C)OC(=O)[C@H](C(C)C)NC1=O .
Reply: 640

Ask: Look at this compound and give its reported LC50. C/C=C1\NC(=O)[C@H](Cc2c[nH]c3ccccc23)NC(=O)[C@@H](C(C)C)NC(=O)[C@@H]([C@H](C)CC)NC(=O)[C@H](NC(=O)[C@H](NC(=O)[C@H](CCCN)NC(=O)[C@H]2CCCN2C(=O)[C@H](NC(=O)[C@@H](NC(=O)[C@@H](NC(=O)[C@H](NC(=O)CCCC(C)C)C(C)C)[C@@H](C)O)C(C)C)C(C)C)[C@H](C)CC)[C@H](C)OC(=O)[C@H](C(C)C)NC1=O
Reply: 1380

----------
# Tested on: PANC-1
# Assay method text: Cytotoxicity against human PANC1 cells after 48 hrs by SRB assay
# Type: functional
# Recorded conditions: PANC-1, 48 h, read-out: LC50 (the source's name)
Measured quantity: CC50 (nM)
Provide the reading as a plain figure in nM.

Ask: Give its CC50 value. Item: C/C=C1\NC(=O)[C@H](Cc2ccc(F)c(F)c2)NC(=O)[C@@H](C(C)C)NC(=O)[C@@H]([C@H](C)CC)NC(=O)[C@H](NC(=O)[C@H](NC(=O)[C@H](CCCN)NC(=O)[C@H]2CCCN2C(=O)[C@H](NC(=O)[C@@H](NC(=O)[C@@H](NC(=O)[C@H](NC(=O)CCCC(C)C)C(C)C)[C@@H](C)O)C(C)C)C(C)C)[C@H](C)CC)[C@H](C)OC(=O)[C@H](C(C)C)NC1=O
Reply: 1650

Ask: Looking for the measured CC50 of C/C=C1\NC(=O)[C@H](Cc2ccccc2)NC(=O)[C@@H](C(C)C)NC(=O)[C@@H]([C@H](C)CC)NC(=O)[C@H](NC(=O)[C@H](NC(=O)[C@H](CCCN)NC(=O)[C@H]2CCCN2C(=O)[C@H](NC(=O)[C@@H](NC(=O)[C@@H](NC(=O)[C@H](NC(=O)CC(C)C)C(C)C)[C@@H](C)O)C(C)C)C(C)C)[C@H](C)CC)[C@H](C)OC(=O)[C@H](C(C)C)NC1=O , can you help?
Reply: 2880

Ask: What does the record list as CC50 for C=C1NC(=O)[C@H](Cc2ccccc2)NC(=O)[C@@H](C(C)C)NC(=O)[C@@H]([C@H](C)CC)NC(=O)[C@H](NC(=O)[C@H](NC(=O)[C@H](CCCN)NC(=O)[C@H]2CCCN2C(=O)[C@H](NC(=O)[C@@H](NC(=O)[C@@H](NC(=O)[C@H](NC(=O)CCCC(C)C)C(C)C)[C@@H](C)O)C(C)C)C(C)C)[C@H](C)CC)[C@H](C)OC(=O)[C@H](C(C)C)NC1=O ?
Reply: 1790

Ask: Field request: CC50 | item: C/C=C1\NC(=O)[C@H](Cc2c[nH]c3ccccc23)NC(=O)[C@@H](C(C)C)NC(=O)[C@@H]([C@H](C)CC)NC(=O)[C@H](NC(=O)[C@H](NC(=O)[C@H](CCCN)NC(=O)[C@H]2CCCN2C(=O)[C@H](NC(=O)[C@@H](NC(=O)[C@@H](NC(=O)[C@H](NC(=O)CCCC(C)C)C(C)C)[C@@H](C)O)C(C)C)C(C)C)[C@H](C)CC)[C@H](C)OC(=O)[C@H](C(C)C)NC1=O
Reply: 2390

Ask: Which CC50 reading was recorded for the compound C/C=C1\NC(=O)[C@H](Cc2ccccc2)NC(=O)[C@@H](C(C)C)NC(=O)[C@@H]([C@H](C)CC)NC(=O)[C@H](N)[C@H](C)OC(=O)[C@H](C(C)C)NC1=O ?
Reply: 5520

Ask: Entry C/C=C1\NC(=O)[C@H](Cc2ccccc2)NC(=O)[C@@H](C(C)C)NC(=O)[C@@H]([C@H](C)CC)NC(=O)[C@H](NC(=O)[C@H](NC(=O)[C@H](CCCN)NC(=O)[C@H]2CCCN2C(=O)[C@H](NC(=O)[C@@H](NC(=O)[C@@H](NC(=O)[C@H](NC(=O)C(F)(F)C(F)(F)C(F)(F)C(F)(F)C(F)(F)C(F)(F)F)C(C)C)[C@@H](C)O)C(C)C)C(C)C)[C@H](C)CC)[C@H](C)OC(=O)[C@H](C(C)C)NC1=O : reported CC50 = ?
Reply: 2000

----------
# Tested on: DU-145
# Assay method text: Cytotoxicity against human DU145 cells after 48 hrs by SRB assay
# Type: functional, cell-based
# Recorded conditions: Homo sapiens, DU-145, 48 h; read-out: LC50 (the source's name)
Criterion: CC50 strictly less than 1000 nM. Met: T. Not met: F.

Ask: For this compound, is CC50 lower than 1000 nM? C/C=C1\NC(=O)[C@H](Cc2ccccc2)NC(=O)[C@@H](C(C)C)NC(=O)[C@@H]([C@H](C)CC)NC(=O)[C@H](NC(=O)[C@H](NC(=O)[C@H](CCCN)NC(=O)[C@H]2CCCN2C(=O)[C@H](NC(=O)CCCCCCCCCCCCC)C(C)C)[C@H](C)CC)[C@H](C)OC(=O)[C@H](C(C)C)NC1=O
Reply: F

Ask: Field: below-cutoff. Rule: recorded CC50 strictly less than 1000 nM. Subject: C/C=C1\NC(=O)[C@H](Cc2ccccc2)NC(=O)[C@@H](C(C)C)NC(=O)[C@@H]([C@H](C)CC)NC(=O)[C@H](NC(=O)[C@H](NC(=O)[C@H](CCCN)NC(=O)[C@H]2CCCN2C(=O)[C@H](NC(=O)[C@@H](NC(=O)CNC(=O)[C@H](NC(=O)CCCC(C)C)C(C)C)C(C)C)C(C)C)[C@H](C)CC)[C@H](C)OC(=O)[C@H](C(C)C)NC1=O
Reply: F

Ask: Determine whether this compound shows CC50 lower than 1000 nM (ties excluded): C/C=C1\NC(=O)[C@H](Cc2ccccc2)NC(=O)[C@@H](C(C)C)NC(=O)[C@@H]([C@H](C)CC)NC(=O)[C@H](NC(=O)[C@H](NC(=O)[C@H](CCCN)NC(=O)[C@H]2CCCN2C(=O)[C@H](NC(=O)[C@@H](NC(=O)[C@@H](NC(=O)[C@H](NC(=O)CCCC(C)C)C(C)C)[C@@H](C)O)C(C)C)C(C)C)[C@H](C)CC)CNC(=O)[C@H](C(C)C)NC1=O
Reply: F

Ask: Here's an entry: C/C=C1\NC(=O)[C@H](Cc2ccccc2)NC(=O)[C@@H](C(C)C)NC(=O)[C@@H]([C@H](C)CC)NC(=O)[C@H](NC(=O)[C@H](NC(=O)[C@H](CCCN)NC(=O)[C@H]2CCCN2C(=O)[C@H](NC(=O)[C@@H](NC(=O)[C@@H](NC(=O)[C@H](NC(=O)CCCNC(=N)N)C(C)C)[C@@H](C)O)C(C)C)C(C)C)[C@H](C)CC)[C@H](C)OC(=O)[C@H](C(C)C)NC1=O . Is its CC50 below 1000 nM?
Reply: F

Ask: Just wondering, is CC50 of C/C=C1\NC(=O)[C@H](Cc2ccccc2)NC(=O)[C@@H](C(C)C)NC(=O)[C@@H]([C@H](C)CC)NC(=O)[C@H](NC(=O)[C@H](NC(=O)[C@H](CCCN)NC(=O)[C@@H]2CCCN2C(=O)[C@H](NC(=O)[C@@H](NC(=O)[C@@H](NC(=O)[C@H](NC(=O)CC[C@@H](C)CC)C(C)C)[C@@H](C)O)C(C)C)C(C)C)[C@H](C)CC)[C@H](C)OC(=O)[C@H](C(C)C)NC1=O below 1000 nM?
Reply: F

Ask: Consider the compound C/C=C1\NC(=O)[C@H](Cc2ccccc2)NC(=O)[C@@H](C(C)C)NC(=O)[C@@H]([C@H](C)CC)NC(=O)[C@H](NC(=O)[C@H](NC(=O)[C@H](CCCN)NC(=O)[C@H]2CCCN2C(=O)[C@H](NC(=O)[C@@H](NC(=O)[C@@H](NC(=O)[C@@H](CCC(N)=O)NC(=O)CCCC(C)C)[C@@H](C)O)C(C)C)C(C)C)[C@H](C)CC)[C@H](C)OC(=O)[C@H](C(C)C)NC1=O . Is its CC50 strictly less than 1000 nM?
Reply: F

Ask: Would you kindly verify if CC50 of C/C=C1\NC(=O)[C@H](Cc2ccccc2)NC(=O)[C@@H](C(C)C)NC(=O)[C@@H]([C@H](C)CC)NC(=O)[C@H](NC(=O)[C@H](NC(=O)[C@H](CCCNC(=O)c2cc(F)c(F)c(F)c2F)NC(=O)[C@H]2CCCN2C(=O)[C@H](NC(=O)[C@@H](NC(=O)[C@@H](NC(=O)[C@H](NC(=O)CCCC(C)C)C(C)C)[C@@H](C)O)C(C)C)C(C)C)[C@H](C)CC)[C@H](C)OC(=O)[C@H](C(C)C)NC1=O is strictly less than 1000 nM?
Reply: T

Ask: Problem: For the compound C/C=C1\NC(=O)[C@H](Cc2ccccc2)NC(=O)[C@@H](C(C)C)NC(=O)[C@@H]([C@H](C)CC)NC(=O)[C@H](NC(=O)[C@H](NC(=O)[C@H](CCCN)NC(=O)[C@H]2CCCN2C(=O)[C@H](NC(=O)[C@@H](NC(=O)[C@@H](NC(=O)[C@@H](C)NC(=O)CCCC(C)C)[C@@H](C)O)C(C)C)C(C)C)[C@H](C)CC)[C@H](C)OC(=O)[C@H](C(C)C)NC1=O , is CC50 under 1000 nM?
Reply: F

Ask: CC50 under 1000 nM? Item: C/C=C1\NC(=O)[C@H](Cc2ccccc2)NC(=O)[C@@H](C(C)C)NC(=O)[C@@H]([C@H](C)CC)NC(=O)[C@H](NC(=O)[C@H](NC(=O)[C@H](CCCN)NC(=O)[C@H]2CCCN2C(=O)[C@H](NC(=O)[C@@H](NC(=O)[C@@H](NC(=O)[C@H](NC(=O)CCCCCCCCCC)C(C)C)[C@@H](C)O)C(C)C)C(C)C)[C@H](C)CC)[C@H](C)OC(=O)[C@H](C(C)C)NC1=O
Reply: T

Ask: Hello, is CC50 of the following compound strictly smaller than 1000 nM? C/C=C1\NC(=O)[C@H](Cc2c[nH]c3ccccc23)NC(=O)[C@@H](C(C)C)NC(=O)[C@@H]([C@H](C)CC)NC(=O)[C@H](NC(=O)[C@H](NC(=O)[C@H](CCCN)NC(=O)[C@H]2CCCN2C(=O)[C@H](NC(=O)[C@@H](NC(=O)[C@@H](NC(=O)[C@H](NC(=O)CCCC(C)C)C(C)C)[C@@H](C)O)C(C)C)C(C)C)[C@H](C)CC)[C@H](C)OC(=O)[C@H](C(C)C)NC1=O
Reply: T
